Test: Liver microsome stability
Type: in vitro ADME, human
Settings: human, liver microsomes; Table 5C; read-out: Human Liver microsome CLint(liver)
Observable: CLint scaled

[
  {
    "Molecule": "CCc1cc(OCCCCn2cc(COCCOCCOCCOCCOCCOCCOCCOCCN)nn2)ccc1-c1ccc(C[C@H](NC(=O)[C@H](CC(=O)O)NC(=O)[C@H](CO)NC(=O)[C@@H](NC(=O)C(C)(Cc2ccccc2F)NC(=O)[C@@H](NC(=O)CNC(=O)[C@H](Cc2nn[nH]n2)NC(=O)C(C)(C)C(=O)NCCc2cnc[nH]2)[C@@H](C)O)[C@@H](C)O)C(=O)N[C@@H](CCCc2cc(C)cc(C)c2)C(N)=O)cc1 (stereo partly shown)",
    "Result": "< 8.6 mL/min/kg"
  }
]

---

Listing: half-life at 2 µM of selected compounds
Assay: Plasma stability of payloads and linker-payloads, human plasma
Format: in vitro ADME
Conditions: plasma, pH 7.4, tested time C (3 days), 2 μM, 37° C., read-out: Human plasma stability assay T½ (converted)
Observable: half-life at 2 µM

[
  {
    "Compound": "CCc1cc(OCCCCN)ccc1-c1ccc(C[C@H](NC(=O)[C@H](CC(=O)O)NC(=O)[C@H](CO)NC(=O)[C@@H](NC(=O)[C@](C)(Cc2ccccc2F)NC(=O)[C@@H](NC(=O)CNC(=O)[C@H](CCC(N)=O)NC(=O)C(C)(C)C(=O)NCCc2cnc[nH]2)[C@@H](C)O)[C@@H](C)O)C(=O)N[C@@H](CCCc2cc(C)cc(C)c2)C(N)=O)cc1",
    "Result": "> 173 h"
  },
  {
    "Compound": "CCc1cc(OCCCCn2cc(COCCOCCOCCOCCOCCOCCOCCOCCN)nn2)ccc1-c1ccc(C[C@H](NC(=O)[C@H](CC(=O)O)NC(=O)[C@H](CO)NC(=O)[C@@H](NC(=O)[C@](C)(Cc2ccccc2F)NC(=O)[C@@H](NC(=O)CNC(=O)[C@H](Cc2nn[nH]n2)NC(=O)C(C)(C)NC(=O)[C@@H](N)Cc2ccc(O)cc2)[C@@H](C)O)[C@@H](C)O)C(=O)N[C@@H](CCCc2cc(C)cc(C)c2)C(N)=O)cc1",
    "Result": "> 173 h"
  },
  {
    "Compound": "CCc1cc(OCCCCn2cc(COCCOCCOCCOCCOCCOCCOCCOCCNC(=O)CCC(=O)N3Cc4ccccc4-c4nn[nH]c4-c4ccccc43)nn2)ccc1-c1ccc(C[C@H](NC(=O)[C@H](CC(=O)O)NC(=O)[C@H](CO)NC(=O)[C@@H](NC(=O)C(C)(Cc2ccccc2F)NC(=O)[C@@H](NC(=O)CNC(=O)[C@H](Cc2nn[nH]n2)NC(=O)C(C)(C)C(=O)NCCc2cnc[nH]2)[C@@H](C)O)[C@@H](C)O)C(=O)N[C@@H](CCCc2cc(C)cc(C)c2)C(N)=O)cc1 (stereo partly drawn)",
    "Result": "> 173 h"
  }
]

---

Target: human GLP1R (Homo sapiens)
Sequence (P43220 24-463): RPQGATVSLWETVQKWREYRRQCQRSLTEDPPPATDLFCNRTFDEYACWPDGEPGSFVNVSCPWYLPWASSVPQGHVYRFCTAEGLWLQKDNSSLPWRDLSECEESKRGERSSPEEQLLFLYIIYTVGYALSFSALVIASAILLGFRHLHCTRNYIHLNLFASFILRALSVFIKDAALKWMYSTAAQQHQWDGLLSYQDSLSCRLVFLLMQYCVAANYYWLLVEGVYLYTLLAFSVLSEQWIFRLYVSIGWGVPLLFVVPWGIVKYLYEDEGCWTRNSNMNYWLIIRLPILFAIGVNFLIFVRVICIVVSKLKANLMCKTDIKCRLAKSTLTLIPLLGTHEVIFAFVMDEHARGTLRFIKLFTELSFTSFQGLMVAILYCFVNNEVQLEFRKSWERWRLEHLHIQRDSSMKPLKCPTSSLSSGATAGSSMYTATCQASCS
Test: Luciferase reporter assay, HEK293/CRE-Luc/hGLP1R (Example 17)
Type: cell-based
Parameters: engineered to express full-length human GLP1R, cynomolgus GLP1R; expressed in transfected cells; host or cells: HEK293/CRE-Luc
Conditions: HEK293/CRE-Luc/hGLP1R; relative to M2361 of the same experiment

[
  {
    "Molecule": "CCc1cc(OCCCCN)ccc1-c1ccc(C[C@H](NC(=O)[C@H](CC(=O)O)NC(=O)[C@H](CO)NC(=O)[C@@H](NC(=O)[C@](C)(Cc2ccccc2F)NC(=O)[C@@H](NC(=O)CNC(=O)[C@@H](N)Cc2nn[nH]n2)[C@@H](C)O)[C@@H](C)O)C(=O)N[C@@H](CCCc2cc(C)cc(C)c2)C(N)=O)cc1 [P2]",
    "Relative Potency (% M2361 EC50)": "0.1%"
  },
  {
    "Molecule": "CCc1cc(OC)ccc1-c1ccc(C[C@H](NC(=O)[C@H](CC(=O)O)NC(=O)[C@H](CO)NC(=O)C(NC(=O)[C@](C)(Cc2ccccc2F)NC(=O)[C@@H](NC(=O)CNC(=O)[C@H](Cc2nn[nH]n2)NC(=O)C(C)(C)C(=O)NCCc2cnc[nH]2)[C@@H](C)O)[C@@H](C)O)C(=O)N[C@@H](CCCc2ccc(OCCCCN)cc2)C(N)=O)cc1 (stereo in doubt)",
    "Relative Potency (% M2361 EC50)": "16.8%"
  }
]

Sourced from patent US20230330254A1
